# Lookup of reported IC50 keyed by entry
test system: Rat fibroblasts (CREF); assay: Peg3 promoter luciferase inhibitors, potency, dose response, cell-based, HeLa, CREF/GAPDH counter-screen panel (AID 624167); details: CREF/GAPDH counter-screens, run 2, dose range 1, individual replicate IC50 per panel
The reply should be a number in µM, with the unit left off.

Worked examples, 5 molecules total:
molecule | endpointLabel | measValue
COc1ccc2c(c1)sc1nc(-c3ccccc3)cn12 | IC50 | 0.484
COc1cc(/C=N/O)ccc1OCc1ccc(C(=O)O)cc1 | IC50 | 8.8
C/C(=N/NC(=O)c1cc(C2CC2)[nH]n1)c1cccs1 | IC50 | 3.83
CCc1ccc(/C=C2\SC(=S)N(CCCC(=O)Nc3ccccn3)C2=O)cc1 | IC50 | 0.313
Cc1csc(NC(=O)c2cn3ccccc3n2)n1 | IC50 | 1.07

Could you now consider this next molecule?
Task: Enter reported IC50 observed with Rat fibroblasts (CREF) for CC1CCCN(c2ncnc3c2cnn3-c2ccc(Cl)cc2)C1 (stereo unspecified)
Output: 2.17
